# TEST SYSTEM: T1, human TfR ectodomain fused to a mouse IgG1 Fc fragment (human, UniProt P02786 89-760)
# T1 construct: extracellular domain; ectodomain fused to the N-terminal end of the Fc, made in-house; not shown: mouse IgG1 Fc fragment
# T1 sequence (P02786 89-760): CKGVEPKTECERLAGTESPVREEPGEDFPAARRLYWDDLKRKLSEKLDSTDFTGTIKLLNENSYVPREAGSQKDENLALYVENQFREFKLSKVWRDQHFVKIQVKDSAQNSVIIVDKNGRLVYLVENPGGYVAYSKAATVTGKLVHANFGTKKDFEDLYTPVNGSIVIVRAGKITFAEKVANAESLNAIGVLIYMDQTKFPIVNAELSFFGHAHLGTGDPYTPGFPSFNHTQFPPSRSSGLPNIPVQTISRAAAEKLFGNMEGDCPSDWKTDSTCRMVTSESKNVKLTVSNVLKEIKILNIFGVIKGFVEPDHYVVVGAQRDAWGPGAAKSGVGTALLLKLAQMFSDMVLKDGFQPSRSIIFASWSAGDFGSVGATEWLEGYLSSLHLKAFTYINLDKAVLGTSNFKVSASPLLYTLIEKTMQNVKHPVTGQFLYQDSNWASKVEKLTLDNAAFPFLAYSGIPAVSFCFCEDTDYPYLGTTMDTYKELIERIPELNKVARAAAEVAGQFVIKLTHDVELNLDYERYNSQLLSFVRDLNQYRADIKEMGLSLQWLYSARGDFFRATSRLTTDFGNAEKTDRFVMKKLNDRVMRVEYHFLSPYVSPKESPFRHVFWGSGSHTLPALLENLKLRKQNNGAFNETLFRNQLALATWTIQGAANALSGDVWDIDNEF
# TEST DESCRIPTION: SPR, kinetic
Measured log10(koff) of individual entries
Parameter value (number): base-10 log of koff in s⁻¹.

- BINDER: "B8^V3 (VHH) VHH: EVQLVESGGGVVQPGGSLRLSCAASGEIFSINFMRWYREAPGKQREWVAGFTRDGSTNYPDSAKGRFTISRDNAKNTVYLQIDSLKPEDTAVYYCYMLDTWGQGTQVTVSS"
  log10(koff): -4.47
- BINDER: "VHH A (C5) (VHH, form with the C-terminal myc-His6 tag (x = 1), since the VHHs were detected with anti-6His or anti-cMyc; the same holds for m12 to m126) VHH: EVQLVESGGGVVQPGGSLKLSCVASGTDFSINFIRWYRQAPGKQREFVAGFTATGNTNYADSMKGRFTISRDNTKNAVYLQIDSLKPEDTAVYYCYMLDKWGQGTQVTVSS"
  log10(koff): -3.75
- BINDER: "VHH A15 (C5^V15) (VHH) VHH: EVQLVESGGGVVQPGGSLKLSCVASGTDFSINFIRWYRQAPGKQREFVAGFTATGNTNYADSMKGRFTISRDNTKNAVYLQIDSLKPEDTAVYYCFMLDKWGQGTQVTVSS"
  log10(koff): -3.75
- BINDER: "E4 (VHH) VHH: EVQLVESGGGLVQAGDSLRLSCTASGLPLSNYPMGWFRRAPGKERELIASISRTGDGTYYADSSVKGRFTISRDNAENTVSLQMNSLKPEDTAVYYCGAGINPTKYWGQGTQVTVSS"
  log10(koff): -2.72
- BINDER: "C3 (VHH) VHH: EVQLVQSGGGLVQAGGSLRLSCAASGRDFSDTSMAWHRQAPGKERLWVAGIRSGSTSTSYADSVKGRFTISRDDAKNTVYLQMDNLTPEDTAVYFCYSKGYWGQGTQVTVSS"
  log10(koff): -2.60

Q: Report log10(koff), nothing else, for this binder: B8^V32 (VHH) VHH: EVQLVESGGGVVQPGGSLRLSCAASGEIRSINFMRWYRQAPGKQREWVAGFTRDGSTNYPDSAKGRFTISRDNAKNTVYLQIDSLKPEDTAVYYCYMLDTWGQGTQVTVSS
Result: -1.90

Q: Report log10(koff), nothing else, for this binder: C5^h22 (VHH) VHH: EVQLVESGGGVVQPGGSLRLSCAASGTDFSINFIRWYRQAPGKGREFVAGFTATGNTNYADSVKGRFTISRDNAKNTLYLQMNSLRPEDTAVYYCYMLDKWGQGTQVTVSS
Result: -2.04

Q: Report log10(koff), nothing else, for this binder: B8^V37 (VHH) VHH: EVQLVESGGGVVQPGGSLRLSCAASGEIFSINFMRWYRQAPGKQREWVAGFTRDGSTNYPDSAKGRFTISEDNAKNTVYLQIDSLKPEDTAVYYCYMLRTWGQGTQVTVSS
Result: -1.31
